Test system: SHBG (Sex Hormone Binding Globulin) from serum of pregnant volunteers
Assay: SHBG assay: competitive displacement of tritiated oestradiol from antibody-captured SHBG on microtiter plate
Design: species or system human
Conditions: displacement of 3H-oestradiol from SHBG; related to testosterone standard curve
reported endpoint: Activity (score for the displacement of tritiated oestradiol)

INSERT INTO assay_data (compound, data_value) VALUES
  ('CNC(=O)O/N=C/C(C)(C)SC', '+/-'),
  ('O=C(O)CNCP(=O)(O)O [Glyphosate]', '+/-'),
  ('CCCCC(O)(Cn1cncn1)c1ccc(Cl)cc1Cl (stereo not drawn)', '+/-'),
  ('CCNc1nc(Cl)nc(NCC)n1', '+ /-'),
  ('CC(C)(C)C(O)(CCc1ccc(Cl)cc1)Cn1cncn1 (stereo not drawn)', '+/-');

----------
Test system: SHBG (Sex Hormone Binding Globulin) from serum of pregnant volunteers
Assay: SHBG assay: competitive displacement of tritiated oestradiol from antibody-captured SHBG on microtiter plate
Design: species or system human
Settings: discussion of the SHBG assay results
reported endpoint: displacement of oestradiol / affinity to SHBG (in words)

INSERT INTO results (molecule, data_value) VALUES
  ('C#CC1(O)CC[C@H]2[C@@H]3CCC4=CC(=O)CC[C@@H]4[C@H]3CC[C@@]21CC (mixture of isomers) [Norgestrel, reference compound]', 'high affinity'),
  ('O=C(O)CNCP(=O)(O)O [Glyphosate]', 'ambiguous result'),
  ('CNC(=O)O/N=C/C(C)(C)SC', 'ambiguous result'),
  ('CCNc1nc(Cl)nc(NCC)n1', 'ambiguous result'),
  ('CCCCC(O)(Cn1cncn1)c1ccc(Cl)cc1Cl (stereo not shown)', 'ambiguous result'),
  ('CC(C)(C)C(O)(CCc1ccc(Cl)cc1)Cn1cncn1 (stereo not shown)', 'ambiguous result'),
  ('CC/C(=C(/CC)c1ccc(O)cc1)c1ccc(O)cc1 [DES, reference compound]', 'high affinity');

Taken from patent EP1272854B1.
